Cited source: paper PMC3310947

Biological target: mouse Dvl1 PDZ domain (mDvl1 residues 247-341) (Mus musculus, UniProt P51141, C338A)
Sequence (P51141 247-341 C338A): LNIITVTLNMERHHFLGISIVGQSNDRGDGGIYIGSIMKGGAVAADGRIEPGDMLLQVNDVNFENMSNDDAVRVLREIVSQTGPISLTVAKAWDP
Assay: […]-HSQC NMR chemical shift titration
Type: binding
pKd: −log10 of the molar value.
MEASURED PARAMETER: pKd

# SMILES INPUT, MEASURED PARAMETER, NUMERIC READOUT
records = [
    ("Cc1ccc(C[C@H](NC(=O)c2cccc(F)c2)C(=O)N[C@@H](CC(C)C)C(=O)O)cc1", "pKd", 5.64),
    ("CC(C)C[C@H](NC(=O)[C@H](Cc1ccccc1)NC(=O)c1ccc(F)cc1)C(=O)O", "pKd", 5.46),
]

(A) Cc1ccc(C[C@H](NC(=O)c2cccc(C)c2)C(=O)N[C@@H](CC(C)C)C(=O)O)cc1
(B) Cc1ccc(C[C@H](NC(=O)c2cccc(C#N)c2)C(=O)N[C@@H](CC(C)C)C(=O)O)cc1
stdin: Quick one: lower pKd, A or B ? When you have decided, please share the label of that item.
stdout: A
